SYSTEM: T1, human ferroportin (SLC40A1) fused in frame with GFP, stably expressed in HEK293 cells (human, UniProt Q9NP59 1-571)
T1 sequence (looked up): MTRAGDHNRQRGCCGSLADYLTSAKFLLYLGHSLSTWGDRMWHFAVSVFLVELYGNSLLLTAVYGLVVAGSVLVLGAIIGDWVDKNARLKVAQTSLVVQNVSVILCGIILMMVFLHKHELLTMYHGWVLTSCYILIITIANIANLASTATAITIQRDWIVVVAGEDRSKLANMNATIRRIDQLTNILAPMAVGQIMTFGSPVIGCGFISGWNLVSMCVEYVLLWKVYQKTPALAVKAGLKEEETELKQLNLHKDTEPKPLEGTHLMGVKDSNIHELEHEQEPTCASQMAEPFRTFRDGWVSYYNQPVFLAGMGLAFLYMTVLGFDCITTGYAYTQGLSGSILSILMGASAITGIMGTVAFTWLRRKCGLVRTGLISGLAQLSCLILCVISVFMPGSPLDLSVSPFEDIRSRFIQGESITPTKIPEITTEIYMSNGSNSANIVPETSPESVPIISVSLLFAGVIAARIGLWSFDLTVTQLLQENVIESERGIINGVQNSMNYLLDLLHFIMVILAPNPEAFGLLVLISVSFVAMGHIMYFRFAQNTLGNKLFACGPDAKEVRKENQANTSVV
TEST_NAME: cell-based or functional assay
* marks the point of attachment. Isovaleryl = CC(C)CC(=O)*
ATTRIBUTE_MEASURED: Potency EC50 (nM)

(P) Isovaleryl-DTHFPCIKFGPRSCK-NH2 (cysteine pairing not given here) [Compound 188]
(Q) H-DTHFPICIFGPRSKGAVCM-NH2 (cysteine pairing not given here) [Compound 66]
(R) Isovaleryl-DTHFPCIKFGPKSKGWVCK-NH2 (not fully specified (bridges); cysteine pairing not given here) [Compound 112]
Query: Hey, quick one: sort these by Potency EC50, low to high? The response must list the labels following the requested ordering.
Response: R, P, Q

Values were extracted from patent US20250340608A1.
